Tested on: MOLT-4 leukemia
measurement-notes: NCI-60 one-dose screen, 48 h (100 = growth as untreated, 0 = no growth, -100 = all killed)
details: 10 µM unless noted
Compounds without any hit were thinned out: in the full panel of roughly 83,000, 20% have a hit. Active and inactive are the calls of the source. Rule for the calls: active = growth percent below 10; inactive = the rest.
measurement-name: growth

Example entries begin here.
c1ccc(Cn2cc3c(c2-c2ccccc2)CCc2cnoc2-3)cc1    58.5% (inactive)
CN(C)CCC(=O)C1CC1    96.9% (inactive)
CC(=O)c1ccc(-n2cc(CN3CCN(c4cc5c(cc4F)c(=O)c(C(=O)O)cn5C4CC4)CC3)nn2)cc1    102% (inactive)
C=C1C(=O)O[C@H]2[C@H]1CC/C(COC(=O)/C=C\C(=O)NCc1ccc(Cn3c(=O)sn(CCCCl)c3=O)cc1)=C\CC[C@@]1(C)O[C@@H]21    60.7% (inactive)

Note: attention shifts to another entry.
Ask: For COc1ccc(NC(=O)c2ccc(Nc3ncnc4c3cnn4-c3cccc(F)c3)cc2)cc1 , what is its reported growth?
Result: 100% (inactive)
